Assay: in vivo
Details: male, Wistar, rat, plasma, iv
Residues, ends and D or L forms follow the SMILES beside them.
readout: level at time molar at 0.25 h (µM)

molecule	readout	quantity_unit	value_measured
CC(=O)N[C@@H](CO)C(=O)N[C@@H](CC(=O)O)C(=O)N[C@@H](CCCCN)C(=O)N1CCC[C@H]1C(=O)O [AcSDKP, N-acetyl-Ser-Asp-Lys-Pro] (Ac-SDKP-OH; C-terminus assumed)	level at time molar at 0.25 h	µM	4.04

* * *

Experiment: in vivo
Details: male, Wistar, rat, urine and plasma, iv, 1 mg/kg
Residues, ends and D or L forms follow the SMILES beside them.
readout: CL renal (mL/min/kg)

compound	readout	quantity_unit	value_measured
CC(=O)N[C@@H](CO)C(=O)N[C@@H](CC(=O)O)C(=O)N[C@@H](CCCCN)C(=O)N1CCC[C@H]1C(=O)O [AcSDKP, N-acetyl-Ser-Asp-Lys-Pro] (Ac-SDKP-OH; C-terminus assumed)	CL renal	mL/min/kg	11.2

* * *

Tested on: human ACE
Assay: In vitro degradation in the presence of human ACE
Type: in vitro ADME
Details: human converting enzyme (human ACE); peptide 100 nM, human converting enzyme 5 mU, pH 7.5; T10 min; without captopril; read-out: percentage of peptide assayed relative to the control
Residues, ends and D or L forms follow the SMILES beside them.
Reported remaining at 10 min, 100 nM values follow for various compounds

compound	remaining at 10 min, 100 nM (%)
CC(=O)N[C@@H](CO)C(=O)N[C@@H](CC(=O)O)C(=O)N[C@@H](CCCCN)C(=O)N1CCC[C@H]1C(=O)O [AcSDKP, N-acetyl-Ser-Asp-Lys-Pro] (Ac-SDKP-OH; C-terminus assumed)	82
CC(=O)N[C@@H](CO)C(=O)N[C@@H](CC(=O)O)C(=O)N[C@@H](CCCCN)C(=O)N1CCC[C@H]1C(N)=O [AcSDKP-NH2, N-acetyl-Ser-Asp-Lys-Pro-NH2] (Ac-SDKP-NH2)	79

* * *

System: human ACE
Assay: In vitro degradation in the presence of human ACE
Format: in vitro ADME
Details: human converting enzyme (human ACE), with captopril 10 μM; peptide 100 nM, human converting enzyme 5 mU, pH 7.5; T1440 min; + captopril 10 μM; read-out: percentage of peptide assayed relative to the control
Procedure: The peptides (100 nM) were incubated with ground rat lung material (at 0.1 mg/ml) or human converting enzyme (5 mU final concentration) in the presence or absence of captopril (10 μM final concentration) in 0.1 M Tris/HCl buffer+0.3 mM NaCl, pH=7.5. […] A methanol extraction was carried out in order to stop the reaction. At each time, the concentration of the nondegraded peptide was measured by enzyme immunoassay. […]
Residues, ends and D or L forms follow the SMILES beside them.

molecule	remaining at 24 h, 100 nM
CC(=O)N[C@@H](CO)C(=O)N[C@@H](CC(=O)O)C(=O)N[C@@H](CCCCN)C(=O)N1CCC[C@H]1C(N)=O [AcSDKP-NH2, N-acetyl-Ser-Asp-Lys-Pro-NH2] (Ac-SDKP-NH2)	117%

* * *

Experiment: in vivo
Conditions: male, Wistar, rat, plasma, iv, 1.2 mg/kg
Residues, ends and D or L forms follow the SMILES beside them.

compound	level at time molar at 5 min / nM
CC(=O)N[C@@H](CO)C(=O)N[C@@H](CC(=O)O)C(=O)N[C@@H](CCCCN)C(=O)N1CCC[C@H]1C(=O)O [AcSDKP, N-acetyl-Ser-Asp-Lys-Pro] (Ac-SDKP-OH; C-terminus assumed)	1820

* * *

Test: in vivo
Conditions: male, Wistar, rat, plasma, iv
Residues, ends and D or L forms follow the SMILES beside them.

molecule	AUC0-inf [ng·h/mL]
CC(=O)N[C@@H](CO)C(=O)N[C@@H](CC(=O)O)C(=O)N[C@@H](CCCCN)C(=O)N1CCC[C@H]1C(N)=O [AcSDKP-NH2, N-acetyl-Ser-Asp-Lys-Pro-NH2] (Ac-SDKP-NH2)	1490

* * *

Assay: in vivo
Conditions: male, Wistar, rat, plasma, iv, 1.2 mg/kg
Residues, ends and D or L forms follow the SMILES beside them.
readout: level at time molar at 10 min (nM)

compound	quantity_unit	value_measured
CC(=O)N[C@@H](CO)C(=O)N[C@@H](CC(=O)O)C(=O)N[C@@H](CCCCN)C(=O)N1CCC[C@H]1C(=O)O [AcSDKP, N-acetyl-Ser-Asp-Lys-Pro] (Ac-SDKP-OH; C-terminus assumed)	nM	514

* * *

Test: in vivo
Conditions: male, Wistar, rat, plasma, iv
Residues, ends and D or L forms follow the SMILES beside them.
readout: level at 5 min (ng/mL)

compound	value_measured
CC(=O)N[C@@H](CO)C(=O)N[C@@H](CC(=O)O)C(=O)N[C@@H](CCCCN)C(=O)N1CCC[C@H]1C(N)=O [AcSDKP-NH2, N-acetyl-Ser-Asp-Lys-Pro-NH2] (Ac-SDKP-NH2)	3400

* * *

Test: in vivo
Conditions: male, Wistar, rat, plasma, iv, 1.2 mg/kg
Residues, ends and D or L forms follow the SMILES beside them.

molecule	level at time molar at 2 h / nM
CC(=O)N[C@@H](CO)C(=O)N[C@@H](CC(=O)O)C(=O)N[C@@H](CCCCN)C(=O)N1CCC[C@H]1C(=O)O [AcSDKP, N-acetyl-Ser-Asp-Lys-Pro] (Ac-SDKP-OH; C-terminus assumed)	2.2

* * *

Assay: in vivo
Conditions: male, Wistar, rat, plasma, iv
Residues, ends and D or L forms follow the SMILES beside them.

compound	level at 1 h [ng/mL]
CC(=O)N[C@@H](CO)C(=O)N[C@@H](CC(=O)O)C(=O)N[C@@H](CCCCN)C(=O)N1CCC[C@H]1C(N)=O [AcSDKP-NH2, N-acetyl-Ser-Asp-Lys-Pro-NH2] (Ac-SDKP-NH2)	450

* * *

Assay: in vivo
Details: male, Wistar, rat, plasma, iv
Residues, ends and D or L forms follow the SMILES beside them.

compound	level at time molar at 3 h
CC(=O)N[C@@H](CO)C(=O)N[C@@H](CC(=O)O)C(=O)N[C@@H](CCCCN)C(=O)N1CCC[C@H]1C(=O)O [AcSDKP, N-acetyl-Ser-Asp-Lys-Pro] (Ac-SDKP-OH; C-terminus assumed)	60 nM

* * *

Reported remaining at 2 h, 100 nM values follow for various compounds
Tested on: ACE (rat lung)
Construct: incubated with ground rat lung material (at 0.1 mg/ml); from tissue; host or cells: rat lung (ground material)
Assay: In vitro degradation in the presence of rat lung ACE
Assay type: in vitro ADME
Details: ground rat lung material (rat lung ACE), with captopril 10 μM; peptide 100 nM, ground rat lung material 0.1 mg/ml, pH 7.5; T120 min; + captopril 10 μM; read-out: percentage of peptide assayed relative to the control
Residues, ends and D or L forms follow the SMILES beside them.

compound	measurement_target	remaining at 2 h, 100 nM (%)
CC(=O)N[C@@H](CO)C(=O)N[C@@H](CC(=O)O)C(=O)N[C@@H](CCCCN)C(=O)N1CCC[C@H]1C(=O)O [AcSDKP, N-acetyl-Ser-Asp-Lys-Pro] (Ac-SDKP-OH; C-terminus assumed)	ACE (rat lung)	75
CC(=O)N[C@@H](CO)C(=O)N[C@@H](CC(=O)O)C(=O)N[C@@H](CCCCN)C(=O)N1CCC[C@H]1C(N)=O [AcSDKP-NH2, N-acetyl-Ser-Asp-Lys-Pro-NH2] (Ac-SDKP-NH2)	ACE (rat lung)	109
